Just for reference, patent US11242344B2 is where these values come from.

Property: IC50; scope: individual compounds
study.target: NanoLuc VHL fusion protein (Homo sapiens (Human), UniProt P40337)
Sequence (P40337 whole entry, looked up, the tested form may be a part): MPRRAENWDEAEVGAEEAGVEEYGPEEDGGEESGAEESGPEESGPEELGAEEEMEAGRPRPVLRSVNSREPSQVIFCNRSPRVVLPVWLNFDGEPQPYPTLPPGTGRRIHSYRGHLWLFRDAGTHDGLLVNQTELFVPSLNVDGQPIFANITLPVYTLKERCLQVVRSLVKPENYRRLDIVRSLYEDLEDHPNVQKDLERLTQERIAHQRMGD
Sequence (Q15370 whole entry partner, looked up, the tested form may be a part): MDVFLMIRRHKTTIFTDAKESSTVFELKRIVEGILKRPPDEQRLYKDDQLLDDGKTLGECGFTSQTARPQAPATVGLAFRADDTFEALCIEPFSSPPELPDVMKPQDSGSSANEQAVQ
Sequence (Q15369 whole entry partner, looked up, the tested form may be a part): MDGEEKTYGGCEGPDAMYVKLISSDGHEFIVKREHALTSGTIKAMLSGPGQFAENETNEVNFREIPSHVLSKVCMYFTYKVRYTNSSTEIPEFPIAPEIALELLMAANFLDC
method: VHL HEK-293 BRET Assay (NanoBRET Target Engagement)
Format: cell-based
experimental.conditions: geometric mean where more than one measurement
The reply should be a number in µM, with the unit left off.

Recorded results for 3 compounds are shown here.
{"columns": ["compound", "study.target", "IC50 / µM"],
 "data": [
  ["Cc1cc([C@H](C(=O)N2C[C@H](O)C[C@H]2C2=NO[C@@](c3ccccc3)(C(F)(F)F)N2)C(C)C)on1 (mixture of isomers) [Example 114.3]", "NanoLuc VHL fusion protein (Homo sapiens (Human), UniProt P40337)", 48.8],
  ["Cc1ncsc1-c1ccc([C@]2(C)NC(C3C[C@@H](O)CN3C(=O)C(c3cn(C)nn3)C(C)C)=NC2=O)cc1 (single isomer, unassigned) [Example 118.2]", "NanoLuc VHL fusion protein (Homo sapiens (Human), UniProt P40337)", 0.939],
  ["Cc1cc(C(C(=O)N2C[C@H](O)CC2C2=NC(=O)[C@](C)(c3ccc(-c4scnc4C)cc3)N2)C(C)C)sn1 (single isomer, unassigned) [Example 119.3]", "NanoLuc VHL fusion protein (Homo sapiens (Human), UniProt P40337)", 71.1]
]}

Ask: If you can, please state the reported IC50 value of Cc1ncsc1-c1ccc([C@]2(C)NC(C3C[C@@H](O)CN3C(=O)[C@@H](NC(=O)CCCCCCCCCCNC(=O)c3cc4c(cc3CS(C)(=O)=O)-c3cn(C)c(=O)c5[nH]cc(c35)CN4c3ncc(F)cc3F)C(C)(C)C)=NC2=O)cc1 (single isomer, unassigned) [Example 1005.1] .
Reply: 64.6

Ask: If you can, please state the reported IC50 value of Cc1cc([C@@H](C(=O)N2C[C@H](O)C[C@H]2C2=NOC3(CCCC3)N2)C(C)C)on1 [Example 127.1] .
Reply: 100

Ask: If you can, please state the reported IC50 value of Cc1cc([C@H](C(=O)N2C[C@H](O)CC2C2=NOC3(CCCc4ccccc43)N2)C(C)C)on1 (single isomer, unassigned) [Example 131.3] .
Reply: 23

Ask: If you can, please state the reported IC50 value of Cc1cc([C@H](C(=O)N2C[C@H](O)C[C@H]2C2=NO[C@](C)(c3ccc(Br)cc3)N2)C(C)C)on1 (mixture of isomers) [Example 113.4] .
Reply: 2.92

Ask: If you can, please state the reported IC50 value of Cc1ncsc1-c1ccc([C@]2(C)NC(C3C[C@@H](O)CN3C(=O)C(c3cnn(C)c3)C(C)C)=NC2=O)cc1 (single isomer, unassigned) [Example 110.1] .
Reply: 28.1

Ask: If you can, please state the reported IC50 value of CC/C(=C(\c1ccc(O)cc1)c1ccc(OCCN(C)C(=O)CCCOCCOc2cc(C(C(=O)N3C[C@H](O)CC3C3=NC(=O)[C@](C)(c4ccc(-c5scnc5C)cc4)N3)C(C)C)on2)cc1)c1ccccc1 (single isomer, unassigned) [Example 1003.3] .
Reply: 51.6

Ask: If you can, please state the reported IC50 value of C#Cc1cccc(Nc2ncnc3cc(OCCOC)c(OCCOCC#CC#CCOc4cc(C(C(=O)N5C[C@H](O)CC5C5=NC(=O)[C@](C)(c6ccc(-c7scnc7C)cc6)N5)C(C)C)on4)cc23)c1 (single isomer, unassigned) [Example 1004.2] .
Reply: 46.4

Ask: If you can, please state the reported IC50 value of Cc1cc([C@H](C(=O)N2C[C@H](O)C[C@H]2C2=NOC3(CCc4ccccc43)N2)C(C)C)on1 (single isomer, unassigned) [Example 130.4] .
Reply: 34.5

Ask: If you can, please state the reported IC50 value of Cc1ncsc1-c1ccc([C@]2(C)NC(C3C[C@@H](O)CN3C(=O)[C@H](C(C)C)N3Cc4ccccc4C3=O)=NC2=O)cc1 (single isomer, unassigned) [Example 123.1] .
Reply: 100

Ask: If you can, please state the reported IC50 value of Cc1cc([C@@H](C(=O)N2C[C@H](O)C[C@H]2C2=NOC(c3ccc(Br)cc3)(C(F)(F)F)N2)C(C)C)on1 (single isomer, unassigned) [Example 133.1] .
Reply: 100

Ask: If you can, please state the reported IC50 value of Cc1cc([C@@H](C(=O)N2C[C@H](O)C[C@H]2C2=NO[C@](C)(c3ccc(Br)cc3)N2)C(C)C)on1 (mixture of isomers) [Example 113.3] .
Reply: 100

Ask: If you can, please state the reported IC50 value of Cc1cc([C@@H](C(=O)N2C[C@H](O)CC2C2=NOC3(CCCc4ccccc43)N2)C(C)C)on1 (single isomer, unassigned) [Example 131.2] .
Reply: 100

Ask: If you can, please state the reported IC50 value of Cc1cc([C@@H](C(=O)N2C[C@H](O)C[C@H]2C2=NOC(C)(c3ccc(-c4scnc4C)cc3)N2)C(C)C)on1 (single isomer, unassigned) [Example 129.1] .
Reply: 100

Ask: If you can, please state the reported IC50 value of Cc1ncsc1-c1ccc([C@]2(C)NC(C3C[C@@H](O)CN3C(=O)C(c3cc(O)no3)C(C)C)=NC2=O)cc1 (single isomer, unassigned) [Example 116.4] .
Reply: 100

Ask: If you can, please state the reported IC50 value of Cc1cc(C(C(=O)N2C[C@H](O)C[C@H]2C2=NN(c3ccccc3)C(C)(C)N2)C(C)C)on1 (single isomer, unassigned) [Example 135.1] .
Reply: 100
